The reported measurements were obtained from patent US4233224A.

- Tested on: L-1210 (lymphatic leukemia strain)
- test.method.notes: Life-prolonging effect in cancer (L-1210) affected mice
- Type: in vivo, mouse (BDF1)
- test.parameters: dose 50 μg/mouse × 10; once a day for 10 days; from 24 hours after intraperitoneal inoculation of 1×10^5 L-1210 cells; BDF1 mice; compared with control group
readout.label: Life-prolonging effect (life prolongation rate) (%)
Numbers only, in %.

compound	data.value
C=C1CC2(OC1=O)[C@H]1CC(C)(C)[C@H](OC(=O)CCCCCCC)[C@H]1[C@]1(C)[C@]3(CO3)[C@@H](O)[C@H]3O[C@@]321 (stereo partly shown)	96
C=C1CC2(OC1=O)[C@H]1O[C@]13[C@@H](O)[C@H]1CC(C)(C)[C@H](OC(=O)CCCCCCC)[C@H]1[C@]3(C)[C@]21CO1 (stereo partly shown)	141
C=C1CC2(OC1=O)[C@H]1O[C@]13C(=O)[C@H]1CC(C)(C)[C@H](OC(=O)CCCCCCC)[C@H]1[C@]3(C)[C@]21CO1 (stereo partly shown)	106

Input: Which measured Life-prolonging effect (life prolongation rate) value corresponds to CCCCCCCC(=O)O[C@@H]1[C@@H]2[C@H](CC1(C)C)[C@H](O)[C@@]13O[C@@H]1C(=O)[C@@]1(CO1)[C@@]23C [5-dehydrocoriolin B VI, 5-dehydrocoriolin B, reference compound] ?
Output: 144
